# Test system: OVCAR-3 ovarian
# assayComment: NCI tumour cell line growth inhibition, 48 h
propertyMeasured: GI50

Here is how some molecules turned out for GI50.
{"molecule": "CN(C)CCN1C(=O)c2cccc3c(N)ccc(c23)C1=O", "experimentalResult": "15.9 µM"}
{"molecule": "CC(N)(Cc1c[nH]c2ccccc12)C(=O)O (stereo not drawn)", "experimentalResult": "> 2500 µM"}

Query molecule follows.
query: # lookup: OVCAR-3 ovarian GI50, key = COc1nc2c(cc1S(=O)(=O)c1ccccc1)CCc1c-2cnn1Cc1ccccc1
result: 9.35 µM

* * *

Below: a set of entries, each annotated with reported TGI.
# Tested on: SK-OV-3 ovarian
# assayComment: NCI tumour cell line growth inhibition, 48 h

{"compound": "COc1ccc2[nH]c(-c3ccccc3)c(C=C(C#N)C#N)c2c1", "experimentalResult": "35.8 µM"}
{"compound": "CCOC(=O)/C(=C\\c1ccnc2ccccc12)P(=O)(OCC)OCC", "experimentalResult": "15.5 µM"}
{"compound": "O=C(CSc1nnc(Cc2ccccc2)o1)Nc1ccccc1Cl", "experimentalResult": "> 100 µM"}
{"compound": "COc1cc(-c2nc3ccccc3[nH]2)ccc1OCC(=O)N=Nc1c(O)[nH]c2ccc(Cl)cc12", "experimentalResult": "3.93 µM"}
{"compound": "Clc1ccccc1-c1nc(-c2ccncc2)no1", "experimentalResult": "> 100 µM"}
{"compound": "CCCC(=O)OCC1(CO)C/C(=C/CC(C(C)C)C(C)C)C(=O)O1 (stereo unspecified)", "experimentalResult": "> 100 µM"}

query: Identify measured TGI associated with O=[N+]([O-])c1ccc(/C=N\Nc2ccc([N+](=O)[O-])cn2)cc1
result: > 100 µM

query: Identify measured TGI associated with COc1ccc2[nH]c3c([N+](=O)[O-])ccc(Cl)c3c(=O)c2c1
result: > 100 µM

query: Identify measured TGI associated with CCC(C(=O)c1cccs1)C(O)(C(F)(F)F)C(F)(F)F (stereo unspecified)
result: > 100 µM

query: Identify measured TGI associated with Cc1ccc(/C=N/NS(=O)(=O)c2ccccc2)cc1
result: > 100 µM

query: Identify measured TGI associated with CC(=O)c1cccc(Nc2c3ccccc3nc3occc23)c1
result: 36 µM

* * *

# System: SK-MEL-2 melanoma
# assayComment: NCI tumour cell line growth inhibition, 48 h
propertyMeasured: TGI (µM)
Express it in µM; write the number only.

query: Identify measured TGI associated with CC(C)C(C/C=C1/CC(CO)(COC(=O)C(C)(C)C)OC1=O)C(C)C (stereo not drawn)
result: 29.9

query: Identify measured TGI associated with COc1cc(C(C)(C)C)cc(OC)c1C(O)(c1c(OC)cc(C(C)(C)C)cc1OC)c1c(OC)cc(C(C)(C)C)cc1OC
result: 0.692

query: Identify measured TGI associated with Cc1cc(O)c(C2=NN(c3ccc(S(N)(=O)=O)cc3)C(c3ccccc3O)C2)cc1Cl (stereo not drawn)
result: 11.6

query: Identify measured TGI associated with COc1cc2cn3c4ccc(O)cc4nc(N)c3c2cc1OC
result: 7.61

* * *

# Tested on: MDA-MB-231 breast
# assayComment: NCI tumour cell line growth inhibition, 48 h; in the data active = GI50 below about 0.43 µM; inactive = the rest
Please reply with one of these outcomes: y = active, n = inactive

{"compound": "CN1C(=O)N(C)C2C1NN=c1s/c(=C\\c3c[nH]c4ccccc34)c(=O)n12 (stereo not given)", "group": "y"}
{"compound": "O=C1OCC2=C1C(c1cccc(C(F)(F)F)c1)c1cc3c(cc1N2CCO)OCO3 (stereo not given)", "group": "n"}

query: Given NC(=O)c1ccc2nc(-c3ccc(C4(N)CCC4)cc3)c(-c3ccccc3)n2n1 , state the outcome it received in this test.
result: n

query: Given COc1cc(/C=C/C(=O)NC[C@]2(O)CCC3C4CCc5cc(O)ccc5C4CCC32C)ccc1O (stereo not given in full) , state the outcome it received in this test.
result: n

query: Given CC(C)(C)CC(C)(C)N(CSc1ccc(Cl)cc1)CSc1ccc(Cl)cc1 , state the outcome it received in this test.
result: n

* * *

# Test system: A549 NSCLC
# assayComment: NCI tumour cell line growth inhibition, 48 h
Below: a set of entries, each annotated with reported TGI.

query: Identify measured TGI associated with CC(C)c1cccc(C(C)C)c1NC(=O)C(=O)CC(=O)CC(c1ccccc1)c1c(O)c2ccccc2oc1=O (stereo not given)
result: > 100 µM

query: Identify measured TGI associated with COc1cccc2c1nc1cccc(OC)c1[n+]2[O-]
result: 38.9 µM

* * *

# Tested on: HCT-15 colon
# assayComment: NCI tumour cell line growth inhibition, 48 h; in the data active = GI50 below about 0.43 µM; inactive = the rest
Please reply with one of these outcomes: active, inactive

{"compound": "CCOC(=O)/C(=C/c1ccccc1)C(=O)c1ccccc1", "group": "inactive"}
{"compound": "CCc1nc(-n2c(CC)nc3ccccc3c2=O)nc(N)c1-c1ccc(Cl)cc1", "group": "inactive"}
{"compound": "C[C@@H]1[C@H]2[C@H](C=C3[C@@H]4CC[C@H]5Cc6nc7c(nc6C[C@]5(C)[C@H]4C[C@@H](O)[C@@]32C)C[C@@H]2CC[C@H]3C4=C[C@@H]5O[C@@]6(CC[C@](C)(CO)O6)[C@@H](C)[C@@]5(O)[C@@]4(C)[C@H](O)C[C@@H]3[C@@]2(C)C7)O[C@]12CCC(C)(C)O2", "group": "inactive"}
{"compound": "CCN1/C(=C/C=C/C=C/c2sc3ccccc3[n+]2CC)Sc2ccccc21", "group": "inactive"}
{"compound": "O=[N+]([O-])c1cccc(/C=C/c2ccccn2)c1", "group": "inactive"}

query: Given COc1ccc(C2=CC(c3ccc(Oc4ccnc5cc(Cl)ccc45)c(OC)c3)c3c(nc(OC)[nH]c3=O)N2)cc1 (stereo unspecified) , state the outcome it received in this test.
result: inactive

query: Given NC(=O)c1ccc2nc(-c3ccc(C4(N)CCC4)cc3)c(-c3ccccc3)n2n1 , state the outcome it received in this test.
result: inactive

query: Given COc1cc2cn3c4ccc(O)cc4nc(N)c3c2cc1OC , state the outcome it received in this test.
result: inactive

query: Given Fc1c[c-]c(-c2ccccn2)c(F)c1.[CH3-].[Pt+2].c1ccc([PH+](c2ccccc2)c2ccccn2)cc1 , state the outcome it received in this test.
result: inactive

query: Given CN(C)CCN1C(=O)c2cccc3c(N)ccc(c23)C1=O , state the outcome it received in this test.
result: inactive

query: Given C=CC(=O)NCCOc1cccc(Nc2cc(NCCCNC(=O)C3CCC3)c(Br)cn2)c1 , state the outcome it received in this test.
result: inactive

* * *

# Tested on: M14 melanoma
# assayComment: NCI tumour cell line growth inhibition, 48 h
propertyMeasured: TGI

Here is how some molecules turned out for TGI.
{"molecule": "CN1C(=O)N(C)C2C1NN=c1s/c(=C\\c3c[nH]c4ccccc34)c(=O)n12 (stereo not given)", "TGI": "> 100 µM"}
{"molecule": "COc1ccc(N2CCN(CN3CCN(c4ccc(OC)cc4)C3)C2)cc1", "TGI": "> 100 µM"}
{"molecule": "C=CC(=O)NCCOc1cccc(Nc2cc(NCCCNC(=O)C3CCC3)c(Br)cn2)c1", "TGI": "7.86 µM"}
{"molecule": "O=C(c1ccccn1)c1nc(-c2ccc(Cl)c(Cl)c2)nc2ccc(Cl)cc12", "TGI": "> 100 µM"}

Query molecule follows.
query: Identify measured TGI associated with Nc1nc(N)c2ncn(-c3ccc(Cl)c(Cl)c3)c2n1
result: > 100 µM

* * *

Below: a set of entries, each annotated with reported TGI.
# System: OVCAR-8 ovarian
# assayComment: NCI tumour cell line growth inhibition, 48 h

{"molecule": "OC12CC3c4ccccc4NC3C3Oc4cccc5c4C31CCN(CC1CC1)C2C5 (centres undefined)", "TGI": "32.3 µM"}
{"molecule": "O=C1OCC2=C1C(c1cccc(C(F)(F)F)c1)c1cc3c(cc1N2CCO)OCO3 (centres undefined)", "TGI": "> 50 µM"}
{"molecule": "C=CC(=O)NCCOc1cccc(Nc2cc(NCCCNC(=O)C3CCC3)c(Br)cn2)c1", "TGI": "> 25 µM"}

Query molecule follows.
query: Identify measured TGI associated with COc1ccc(N2CCN(CN3CCN(c4ccc(OC)cc4)C3)C2)cc1
result: > 100 µM

* * *

Below: a set of entries, each annotated with reported GI50.
# System: K-562 leukemia
# assayComment: NCI tumour cell line growth inhibition, 48 h

{"molecule": "COc1ccc2c(O)c(/C=C3\\N=Nc4ncccc43)oc2c1C[C@H]1CCNC[C@H]1F", "studyTarget": "K-562 leukemia", "propertyMeasured": "GI50", "experimentalResult": "0.436 µM"}

query: Identify measured GI50 associated with COc1cc2cn3c4ccc(O)cc4nc(N)c3c2cc1OC
result: 0.0348 µM

query: Identify measured GI50 associated with CC(C)(C)OC(=O)N1CC(Cn2cc(C(F)(F)F)c3c(Cl)ncnc32)C1
result: 2.81 µM

query: Identify measured GI50 associated with S=c1nc[nH]c2nc[nH]c12
result: 3.34 µM

query: Identify measured GI50 associated with CC(N)(Cc1c[nH]c2ccccc12)C(=O)O (stereo unspecified)
result: > 2500 µM

query: Identify measured GI50 associated with COc1ccc2c(c1)C(=O)c1c-2c(OCCN(C)C)nc2cc(OC)ccc12
result: 1.06 µM

The values you see were collected from PubChem BioAssay (NCI).
